These data points were gathered from the supplement of paper PMC10567573.

B1: DVL3 (parent)
chain: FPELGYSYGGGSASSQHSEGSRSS

Variants of: B1
Experiment: protein stability index of a GFP-peptide fusion (GPS, HEK-293T) (PSI 1-6); higher = more stable;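 also: lentivirally expressed fusions sorted by FACS into six bins by GFP to DsRed ratio, PSI derived from sequencing read proportions per bin multiplied by bin number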
Settings: c terminus: a fixed tail appended
quantity measured: protein stability index
Reply with just the number.

Sample records with protein stability index:
S15P : 3.56
G9V : 2.4

Let us move to another entry and its protein stability index.
Prompt: // protein stability index lookup, key: `G5R`
Response: 3.58
